# Test system: BDF1 mice, colon carcinoma 38 sc, T/C %
# Experimental Details: NCI In Vivo Anticancer Drug Screen. Data for tumor model Colon Carcinoma 38 (subcutaneous) in B6D2F1 (BDF1) mice
# Condition Description: endpoint: median tumor weight (est.); dose: 50.0 mg/kg/injection; schedule: Q07DX002 (ip); vehicle: Klucel (hydroxypropylcellulose) (HPC); higher = larger tumour
# Experimental: The antitumor activity of compounds was measured in mice bearing transplantable tumors. Survival or tumor size were measured and the results are expressed as the measurement made in the treated group (T) divided by the measurement made in the vehicle treated control group (C). The tumor model used in this assay is Colon Carcinoma 38 (subcutaneous) in B6D2F1 (BDF1) mice
Inconclusive results are not listed.
Could you please report measured T/C for the items listed next?

Data request: Find the measured T/C: item Clc1ccc(C2SC=Cc3ccccc32)cc1 (centres undefined) , target or system BDF1 mice, colon carcinoma 38 sc, T/C %.
Data returned: 56 % of control

Data request: Record lookup: for BDF1 mice, colon carcinoma 38 sc, T/C %, what T/C belongs to "CS(=O)(=O)OCCN(CCOS(C)(=O)=O)c1ccc(C=Nc2ccc(-c3csc(COc4ccccc4)n3)cc2)cc1" ?
Data returned: 158 % of control

Data request: Notebook entry, BDF1 mice, colon carcinoma 38 sc, T/C % assay: T/C of "CN(C)C(=O)SC1=C(c2c(Cl)cccc2Cl)C(=O)c2ccccc21" = ?
Data returned: 76 % of control

Data request: Record "C[Si](C)(C)OSc1ccccc1[N+](=O)[O-]" : what is its T/C with BDF1 mice, colon carcinoma 38 sc, T/C %?
Data returned: 113 % of control
